Test system: CCRF-CEM
Assay: NCI tumour cell line growth inhibition, 48 h
Activity calls are given as the source filed them. Rule as the data show it: active = GI50 up to about 1.1 µM and inactive = higher.
READOUT NAME: GI50

Ask: Param readout= GI50; system= CCRF-CEM; entry= CC(=O)Nc1ccc(/C=C/c2ccc(NC(=O)Nc3ccc(/C=C/c4ccc(NC(C)=O)cc4S(=O)(=O)O)c(S(=O)(=O)O)c3)cc2S(=O)(=O)O)c(S(=O)(=O)O)c1 ; returns value.
Reply: > 100 µM (inactive)

Ask: Param readout= GI50; system= CCRF-CEM; entry= COC(=O)[C@]1(C)CCC[C@@]2(C)[C@@H]3C[C@@H]4[C@H]5C[C@@]3(CC[C@@H]21)C[C@@]45C ; returns value.
Reply: 18 µM (inactive)

Ask: Param readout= GI50; system= CCRF-CEM; entry= O=C(O)C(CO)NC(=O)C1C(C(=O)O)C(c2ccccc2[N+](=O)[O-])C=C(c2ccco2)N1c1ccncc1 (stereo not drawn) ; returns value.
Reply: 2.19 µM (inactive)
